- target.under.test: human recombinant prostanoid FP receptor (Homo sapiens)
- Construct: expressed in transfected cells
- Sequence (P43088 whole entry): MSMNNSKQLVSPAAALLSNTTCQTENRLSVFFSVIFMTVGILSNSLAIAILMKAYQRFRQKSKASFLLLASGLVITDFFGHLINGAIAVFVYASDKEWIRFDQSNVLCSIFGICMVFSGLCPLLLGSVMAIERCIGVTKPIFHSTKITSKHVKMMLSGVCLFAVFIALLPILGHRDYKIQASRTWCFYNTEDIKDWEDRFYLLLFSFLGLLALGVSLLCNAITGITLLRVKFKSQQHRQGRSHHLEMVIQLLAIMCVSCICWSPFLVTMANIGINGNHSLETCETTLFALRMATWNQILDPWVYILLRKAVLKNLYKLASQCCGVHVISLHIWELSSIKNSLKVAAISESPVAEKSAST
- assay.summary: FLIPR Ca2+ signaling, PG antagonist activity, FP
- Format: cell-based
- assay.context: antagonism of standard agonist 17-phenyl-PGF2α, HEK-293 EBNA stable cells
endpoint.name: Kb (nM)
Answers are plain numbers, in nM.

// below: answered molecules
CCC(CC)COc1ccc(Cl)cc1Cn1nc(C)c(C(=O)O)c1C 700
CCC(CC)COc1ccc(Cl)cc1Cn1ncc(C(=O)O)c1C 190
Cc1c(C(=O)O)cnn1Cc1cc(Cl)ccc1OCC1CCCC1 110
CCC(CC)COc1ccc(Br)cc1Cn1ncc(C(=O)O)c1C 80

Quick batch: Kb for everything below.
1. CCC(CC)COc1ccc(Cl)cc1Cn1cc(C(=O)O)cn1
2. CCC(CC)COc1ccc(Br)cc1Cn1ncc(CC(=O)O)c1C
3. CCC(CC)COc1ccc(C(F)(F)F)cc1Cn1cc(C(=O)O)c(C)n1
4. Cc1c(C(=O)O)cnn1Cc1cc(Br)ccc1OCC(C)C
5. Cc1c(C(=O)O)cnn1Cc1cc(Cl)ccc1OCC(C)C

1: 2000; 2: 2700; 3: 7200; 4: 70; 5: 500

###

- target.under.test: human recombinant prostanoid FP receptor (Homo sapiens)
- Construct: expressed in transfected cells
- assay.summary: FLIPR Ca2+ signaling, PG antagonist activity, FP
- Format: cell-based
- assay.context: antagonism of standard agonist 17-phenyl-PGF2α, HEK-293 EBNA stable cells
endpoint.name: Kb

Below: 4 molecules and their reported Kb.
CCC(CC)COc1ccc(C(F)(F)F)cc1Cn1ncc(C(=O)O)c1C 200 nM
CCCc1nn(Cc2cc(Cl)ccc2OCC(CC)CC)cc1C(=O)O ≥ 10000 nM
Cc1c(C(=O)O)cnn1Cc1cc(Br)ccc1OCC(C)(C)C 90 nM
CCC(CC)COc1ccc(OC(F)(F)F)cc1Cn1ncc(C(=O)O)c1C 140 nM

Param item = CCC(CC)COc1ccc(Br)cc1Cn1ncc(C(=O)O)c1N ; retrieve measured Kb.
200 nM

###

- target.under.test: human recombinant prostanoid EP1 receptor (Homo sapiens, UniProt P34995)
- Construct: expressed in transfected cells
- Sequence (P34995 whole entry): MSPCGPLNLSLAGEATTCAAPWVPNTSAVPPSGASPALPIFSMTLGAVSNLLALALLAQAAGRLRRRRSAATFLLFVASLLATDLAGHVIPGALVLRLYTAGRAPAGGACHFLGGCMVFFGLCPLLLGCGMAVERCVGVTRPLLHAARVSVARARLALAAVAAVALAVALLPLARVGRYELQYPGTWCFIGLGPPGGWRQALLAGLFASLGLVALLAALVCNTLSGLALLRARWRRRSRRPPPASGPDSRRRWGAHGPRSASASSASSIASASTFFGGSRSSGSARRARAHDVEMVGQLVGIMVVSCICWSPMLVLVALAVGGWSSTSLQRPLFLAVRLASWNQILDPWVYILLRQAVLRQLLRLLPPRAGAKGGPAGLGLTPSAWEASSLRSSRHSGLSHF
- assay.summary: FLIPR Ca2+ signaling, PG antagonist activity, EP1
- Type: cell-based
- assay.context: antagonism of standard agonist PGE2, HEK-293 EBNA stable cells
endpoint.name: Kb (nM)
Give bare numbers, in nM.

The cases that follow already have their Kb on record.
CCC(CC)COc1ccc(Br)cc1Cn1ncc(CC(=O)O)c1C 170
CCCc1c(C(=O)O)cnn1Cc1cc(Cl)ccc1OCC(CC)CC 640
CCC(CC)COc1ccc(Cl)cc1Cn1nc(C)c(C(=O)O)c1C 20

Count: 2. Required value per item: Kb.
1. Cc1c(C(=O)O)cnn1Cc1cc(Br)ccc1OCC(C)C
2. CCC(CC)COc1ccc(OC(F)(F)F)cc1Cn1ncc(C(=O)O)c1C

30
45

###

- target.under.test: human recombinant prostanoid TP receptor (Homo sapiens, UniProt P21731)
- Construct: expressed in transfected cells
- Sequence (P21731 whole entry): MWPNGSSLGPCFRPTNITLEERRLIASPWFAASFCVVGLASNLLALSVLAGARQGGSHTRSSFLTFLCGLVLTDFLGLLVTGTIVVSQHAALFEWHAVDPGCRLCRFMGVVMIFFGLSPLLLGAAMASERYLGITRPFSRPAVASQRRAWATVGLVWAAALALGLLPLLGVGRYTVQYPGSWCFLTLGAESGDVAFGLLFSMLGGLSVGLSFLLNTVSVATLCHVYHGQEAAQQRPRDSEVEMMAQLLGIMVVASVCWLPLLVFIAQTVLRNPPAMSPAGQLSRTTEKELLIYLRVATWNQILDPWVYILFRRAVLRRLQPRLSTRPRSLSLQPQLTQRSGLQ
- assay.summary: FLIPR Ca2+ signaling, PG antagonist activity, TP
- Format: cell-based
- assay.context: antagonism of standard agonist U-46619, HEK-293 EBNA stable cells
endpoint.name: Kb

CCC(CC)COc1ccc(Br)cc1Cn1ncc(CC(=O)O)c1C 0.003 µM
CCC(CC)COc1ccc(C(F)(F)F)cc1Cn1cc(C(=O)O)c(C)n1 0.44 µM
CCC(CC)COc1ccc(Br)cc1Cn1ncc(C(=O)O)c1N 0.05 µM
CCC(CC)COc1ccc(Br)cc1Cn1ncc(C(=O)O)c1C 0.012 µM

Consider the additional compound presented here.
Please look up its Kb: Cc1c(C(=O)O)cnn1Cc1cc(Br)ccc1OCC(C)C
0.02 µM
